Assay: ATG_TCF_b_cat_CIS: Attagene CIS-FACTORIAL HepG2 Assay for human T-Cell-Factor with beta-catenin (TCF/b-cat) (AID 2282965)
Settings: HepG2 TCF/beta-catenin cis-reporter transcription, actives raise or lower the signal
Active and inactive are the calls of the source. Rule for the calls: active = hit-call score of the fitted dose curve at least 0.9, where 1 is the maximum; inactive = score below 0.9.
Please reply with one of these outcomes: TRUE (active), FALSE (inactive)

Here are 2 compounds together with their reported answers.
Compound: CN(CCOc1ccc(CC2SC(=O)NC2=O)cc1)c1ccccn1 (stereo not drawn)
Class label: FALSE
//
Compound: O=C1c2ccccc2C(=O)N1SC1CCCCC1
Class label: FALSE

Task: Which outcome was entered for the compound "O=C(O)C[C@H](O)C[C@H](O)/C=C/c1c(C2CC2)nc2ccccc2c1-c1ccc(F)cc1" in this test?
Output: FALSE

Task: Which outcome was entered for the compound "CC(C)c1cccc(O)c1" in this test?
Output: FALSE

Task: Which outcome was entered for the compound "CC(C)OP(=O)(CP(=O)(OC(C)C)OC(C)C)OC(C)C" in this test?
Output: FALSE

Task: Which outcome was entered for the compound CCCOCC(C)O (stereo not drawn) in this test?
Output: FALSE

Task: Which outcome was entered for the compound "O=C(O)CCCCCCCC(=O)O" in this test?
Output: FALSE

Task: Which outcome was entered for the compound CC(CN1c2ccccc2Sc2ccccc21)N(C)C (stereo not drawn) in this test?
Output: TRUE

Task: Which outcome was entered for the compound "CC(=O)OCCOC(C)=O" in this test?
Output: FALSE

Task: Which outcome was entered for the compound "Cc1ccc(C(C)C)cc1O" in this test?
Output: FALSE

Task: Which outcome was entered for the compound "C=C(C)C(=O)O[C@H]1C[C@@H]2CC[C@@]1(C)C2(C)C" in this test?
Output: TRUE

Task: Which outcome was entered for the compound "O=C(Nc1ccccc1)c1cc([N+](=O)[O-])ccc1Cl" in this test?
Output: FALSE

Task: Which outcome was entered for the compound "CNC(=O)Oc1ccc2c(c1)[C@]1(C)CCN(C)[C@@H]1N2C" in this test?
Output: FALSE
